- TARGET_SYSTEM: ATP-dependent translocase ABCB1 (Homo sapiens, UniProt P08183)
- Sequence (P08183 whole entry): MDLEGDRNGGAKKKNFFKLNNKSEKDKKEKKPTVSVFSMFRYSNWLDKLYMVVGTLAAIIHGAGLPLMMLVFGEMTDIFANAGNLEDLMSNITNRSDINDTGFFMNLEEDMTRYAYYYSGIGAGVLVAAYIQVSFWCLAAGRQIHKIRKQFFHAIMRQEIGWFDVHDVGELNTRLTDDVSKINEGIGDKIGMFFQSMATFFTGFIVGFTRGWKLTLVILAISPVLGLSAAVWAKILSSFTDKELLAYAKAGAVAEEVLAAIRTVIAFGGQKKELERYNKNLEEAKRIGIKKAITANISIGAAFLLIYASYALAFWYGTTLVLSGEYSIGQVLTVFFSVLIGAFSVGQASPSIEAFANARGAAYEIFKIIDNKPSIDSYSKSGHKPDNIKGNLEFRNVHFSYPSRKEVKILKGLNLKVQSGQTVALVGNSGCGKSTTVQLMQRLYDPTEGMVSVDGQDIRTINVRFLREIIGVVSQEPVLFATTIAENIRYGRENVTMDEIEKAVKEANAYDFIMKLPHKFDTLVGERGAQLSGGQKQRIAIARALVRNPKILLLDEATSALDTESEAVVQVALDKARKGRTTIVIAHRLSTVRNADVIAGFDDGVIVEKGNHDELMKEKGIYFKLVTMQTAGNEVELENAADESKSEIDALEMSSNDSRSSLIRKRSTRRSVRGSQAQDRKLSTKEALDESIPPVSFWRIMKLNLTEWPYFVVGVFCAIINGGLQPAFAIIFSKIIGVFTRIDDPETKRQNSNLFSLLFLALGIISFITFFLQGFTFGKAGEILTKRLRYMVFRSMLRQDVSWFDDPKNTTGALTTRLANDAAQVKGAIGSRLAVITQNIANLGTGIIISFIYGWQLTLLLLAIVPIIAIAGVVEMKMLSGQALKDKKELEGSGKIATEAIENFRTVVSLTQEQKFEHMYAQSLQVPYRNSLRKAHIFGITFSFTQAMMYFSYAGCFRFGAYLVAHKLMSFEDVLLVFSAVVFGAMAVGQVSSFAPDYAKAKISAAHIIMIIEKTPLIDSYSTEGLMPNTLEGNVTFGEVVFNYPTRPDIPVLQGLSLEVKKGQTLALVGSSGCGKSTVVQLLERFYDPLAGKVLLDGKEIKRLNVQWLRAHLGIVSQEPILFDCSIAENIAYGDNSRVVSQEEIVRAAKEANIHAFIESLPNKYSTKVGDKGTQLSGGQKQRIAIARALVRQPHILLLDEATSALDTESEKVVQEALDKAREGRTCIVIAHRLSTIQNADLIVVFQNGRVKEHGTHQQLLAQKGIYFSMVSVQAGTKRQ
- ASSAY_NOTES: Activity at MDR1 (unknown origin) expressed in MDCK cells assessed as interference with calcein-AM efflux incubated for 30 mins prior to calcein-Am addition measured after 30 mins by fluorometric analysis
pEC50: −log10 of the molar value.

STRUCTURE_SMILES | TARGET_SYSTEM | pEC50
COc1cc2c(cc1OC)CN(Cc1ccc(-c3ccc4ccccc4c3)o1)CC2 | ATP-dependent translocase ABCB1 (Homo sapiens, UniProt P08183) | 5.15
COc1cc2c(cc1OC)CN(Cc1csc(-c3ccc4cc(F)ccc4c3)n1)CC2 | ATP-dependent translocase ABCB1 (Homo sapiens, UniProt P08183) | 5.32
COc1cc2c(cc1OC)CN(Cc1ccc(-c3ccc(O)cc3)cc1)CC2 | ATP-dependent translocase ABCB1 (Homo sapiens, UniProt P08183) | 6.16
COc1ccc2cc(-c3ccc(CN4CCc5cc(OC)c(OC)cc5C4)o3)ccc2c1 | ATP-dependent translocase ABCB1 (Homo sapiens, UniProt P08183) | 5.54
COc1cc2c(cc1OC)CN(Cc1coc(-c3ccc4ccccc4c3)n1)CC2 | ATP-dependent translocase ABCB1 (Homo sapiens, UniProt P08183) | 5.64

====

Here, each record is paired with measured pEC50 data.
- TARGET_SYSTEM: Multidrug resistance-associated protein 1 (Homo sapiens, UniProt P33527)
- Sequence (P33527 whole entry): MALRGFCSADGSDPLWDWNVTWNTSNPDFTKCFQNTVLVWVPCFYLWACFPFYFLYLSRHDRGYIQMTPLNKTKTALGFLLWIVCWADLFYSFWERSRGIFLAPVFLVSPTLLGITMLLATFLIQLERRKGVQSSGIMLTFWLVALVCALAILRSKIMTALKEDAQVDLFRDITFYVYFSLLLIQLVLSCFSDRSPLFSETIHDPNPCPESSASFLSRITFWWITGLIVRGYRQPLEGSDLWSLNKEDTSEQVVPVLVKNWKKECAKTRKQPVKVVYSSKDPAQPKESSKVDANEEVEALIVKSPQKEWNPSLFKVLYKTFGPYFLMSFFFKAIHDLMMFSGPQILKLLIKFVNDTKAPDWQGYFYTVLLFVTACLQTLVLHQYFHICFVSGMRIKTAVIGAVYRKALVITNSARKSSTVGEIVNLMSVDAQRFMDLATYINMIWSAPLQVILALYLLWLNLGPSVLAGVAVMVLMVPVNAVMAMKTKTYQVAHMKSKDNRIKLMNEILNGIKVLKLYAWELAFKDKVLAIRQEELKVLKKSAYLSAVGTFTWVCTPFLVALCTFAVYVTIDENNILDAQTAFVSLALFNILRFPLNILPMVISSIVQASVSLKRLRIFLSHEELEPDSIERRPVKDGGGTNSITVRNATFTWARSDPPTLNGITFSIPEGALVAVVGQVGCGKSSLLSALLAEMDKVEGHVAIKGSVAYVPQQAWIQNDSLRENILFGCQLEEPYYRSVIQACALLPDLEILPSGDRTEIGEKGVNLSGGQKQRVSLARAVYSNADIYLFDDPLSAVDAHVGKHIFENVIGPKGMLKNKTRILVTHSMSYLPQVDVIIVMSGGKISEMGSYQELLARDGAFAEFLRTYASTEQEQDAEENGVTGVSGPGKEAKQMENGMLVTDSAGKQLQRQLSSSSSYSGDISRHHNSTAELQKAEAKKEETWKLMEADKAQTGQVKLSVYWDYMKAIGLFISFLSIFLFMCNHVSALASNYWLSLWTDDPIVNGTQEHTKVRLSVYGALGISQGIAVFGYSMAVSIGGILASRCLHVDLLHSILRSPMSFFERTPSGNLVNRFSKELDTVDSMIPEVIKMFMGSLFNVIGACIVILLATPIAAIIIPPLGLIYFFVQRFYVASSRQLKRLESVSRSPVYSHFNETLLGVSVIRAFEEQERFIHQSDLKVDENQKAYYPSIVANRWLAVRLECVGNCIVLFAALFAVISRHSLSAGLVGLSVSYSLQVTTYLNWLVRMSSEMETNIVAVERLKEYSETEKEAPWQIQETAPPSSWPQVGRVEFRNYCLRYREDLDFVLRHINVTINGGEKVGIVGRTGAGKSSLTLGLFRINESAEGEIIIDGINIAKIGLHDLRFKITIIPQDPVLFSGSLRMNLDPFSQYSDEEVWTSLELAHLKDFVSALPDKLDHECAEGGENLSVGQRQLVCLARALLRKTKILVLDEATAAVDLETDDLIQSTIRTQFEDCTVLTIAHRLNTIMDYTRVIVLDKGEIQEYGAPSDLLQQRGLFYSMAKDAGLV
- ASSAY_NOTES: Activity at MRP1 (unknown origin) expressed in MDCK cells assessed as interference calcein-AM efflux incubated for 30 mins prior to calcein-Am addition measured after 30 mins by fluorometric analysis
pEC50: −log10 of the molar value.
OBSERVED_PROPERTY: pEC50

COMPOUND | OBSERVED_PROPERTY | BOUND_OPERATOR | OBSERVED
COc1ccc2cc(-c3nc(CN4CCc5cc(OC)c(OC)cc5C4)co3)ccc2c1 | pEC50 | = | 4.83
COc1cc2c(cc1OC)CN(Cc1csc(-c3ccc4cc(F)ccc4c3)n1)CC2 | pEC50 | = | 5.06
COc1cc2c(cc1OC)CN(CC/C=C1\CCCc3c(OC)cccc31)CC2 | pEC50 | = | 5.55
COc1cc2c(cc1OC)CN(Cc1csc(-c3ccc4ccccc4c3)n1)CC2 | pEC50 | = | 5.49
COc1cc2c(cc1OC)CN(Cc1ccc(-c3ccc4ccccc4c3)o1)CC2 | pEC50 | < | 4.00
COc1cc2c(cc1OC)CN(CCCC1CCCc3c(OC)cccc31)CC2 (centres undefined) | pEC50 | < | 4.00
COc1cc2c(cc1OC)CN(Cc1ccc(-c3ccc(O)cc3)cc1)CC2 | pEC50 | = | 5.03
COc1cc2c(cc1OC)CN(Cc1coc(-c3ccc4cc(Br)ccc4c3)n1)CC2 | pEC50 | < | 4.00
COc1ccc2cc(-c3ccc(CN4CCc5cc(OC)c(OC)cc5C4)o3)ccc2c1 | pEC50 | < | 4.00

====

- TARGET_SYSTEM: UniProt P08183
- ASSAY_NOTES: Activity at MDR1 (unknown origin) expressed in MDCK cells assessed as interference with calcein-AM efflux incubated for 30 mins prior to calcein-Am addition measured after 30 mins by fluorometric analysis

STRUCTURE_SMILES | UNIT_ANNOTATION | EC50
COc1cc2c(cc1OC)CN(CC/C=C1\CCCc3c(OC)cccc31)CC2 | nM | 1500
COc1cc2c(cc1OC)CN(Cc1csc(-c3ccc4ccccc4c3)n1)CC2 | nM | 3500
COc1cc2c(cc1OC)CN(Cc1coc(-c3ccc4cc(Br)ccc4c3)n1)CC2 | nM | 1800
COc1ccc2cc(-c3nc(CN4CCc5cc(OC)c(OC)cc5C4)co3)ccc2c1 | nM | 600
